measured.target: Cyclin-dependent kinase 1/G2/mitotic-specific cyclin-B (Marthasterias glacialis, UniProt P15206+Q9DGD3)
Sequence (Q9DGD3 whole entry): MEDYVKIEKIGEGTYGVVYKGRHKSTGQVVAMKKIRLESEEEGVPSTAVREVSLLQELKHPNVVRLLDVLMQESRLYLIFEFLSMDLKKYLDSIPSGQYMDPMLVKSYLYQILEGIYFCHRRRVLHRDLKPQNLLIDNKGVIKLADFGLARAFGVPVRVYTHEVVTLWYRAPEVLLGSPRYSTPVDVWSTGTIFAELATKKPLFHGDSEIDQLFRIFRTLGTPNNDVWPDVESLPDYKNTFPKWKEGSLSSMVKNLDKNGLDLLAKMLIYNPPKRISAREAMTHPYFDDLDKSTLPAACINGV
Sequence (P15206 whole entry): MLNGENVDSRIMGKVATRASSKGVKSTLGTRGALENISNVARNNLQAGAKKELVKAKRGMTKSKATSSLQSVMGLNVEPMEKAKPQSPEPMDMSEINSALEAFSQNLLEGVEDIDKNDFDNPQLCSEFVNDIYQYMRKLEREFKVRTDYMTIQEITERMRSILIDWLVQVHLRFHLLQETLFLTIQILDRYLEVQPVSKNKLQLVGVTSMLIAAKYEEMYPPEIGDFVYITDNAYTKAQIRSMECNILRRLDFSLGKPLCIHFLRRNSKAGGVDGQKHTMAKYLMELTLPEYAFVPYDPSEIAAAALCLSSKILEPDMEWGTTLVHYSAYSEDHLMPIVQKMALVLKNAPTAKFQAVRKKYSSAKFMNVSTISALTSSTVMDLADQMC
measurement.notes: Kinase Inhibition Assay
property: pIC50
One number for each entry, as −log10 of the molar value.

QUERY: Item under review: CS(=O)(=O)c1ccc(Nc2nc(OCC3CCCCC3)c3[nH]cnc3n2)cc1 . Reported pIC50?
RESULT: 7.10
